Tested on: PBMC
Assay: Human PBMC IL-2 assay
Assay type: cell-based
Settings: anti-CD3/CD28 stimulation overnight, IL-2 level
Binned EC50; ranges: class 1 (below 50 nM), class 2 (50 nM to below 200 nM), class 3 (200 nM or more)

compound	discrete_label
CC[C@@H]1CN2c3c(c(=O)n(C)c4ccc(C#N)nc34)OC[C@@H]2CN1[C@H](CC)c1c(F)ccc(F)c1F (stereo in doubt)	class 3
CC[C@H](c1ccc(Cl)c(C(F)(F)F)c1)N1C[C@H]2COc3c(c4nc(C#N)ccc4n(C)c3=O)N2C[C@H]1C (stereo in doubt)	class 2
CC[C@@H](c1ccc(Cl)c(C(F)(F)F)c1)N1C[C@H]2COc3c(c4nc(C#N)ccc4n(C)c3=O)N2C[C@H]1C (stereo in doubt)	class 3

We next turn to a different compound, shown below.
The entry to classify is CC[C@@H]1CN2c3c(c(=O)n(C)c4ccc(C#N)nc34)OC[C@@H]2CN1[C@@H](CC)c1ccc(C(F)(F)F)cc1F (stereo in doubt) ; which class holds it?
class 2
